- test.description: Colon pharmacokinetics and distribution after single oral dose in colitis mice
- Type: in vivo
- experimental.conditions: male, C57BL/6, mouse, single oral dose 30 mg/kg CQ equivalent, pCQ = total HCQ
assay.endpoint: AUC(0-inf) (µg·h/mL)

> print(dat)
                                   compound  assay.endpoint  endpoint.unit  endpoint.result
1  CCN(CCO)CCCC(C)Nc1ccnc2cc(Cl)ccc12 (stereo not shown) [HCQ, Hydroxychloroquine]      AUC(0-inf)        µg·h/mL              209

----------
- test.description: Blood pharmacokinetics after single oral dose in C. rodentium colitis mice
- Assay type: in vivo, mouse
- experimental.conditions: male, C57BL/6, mouse, whole blood; blood; single oral dose 30 mg/kg HCQ equivalent; colitis mice; pCQ = total HCQ
- Procedure: Male C57BL/6 mice (6 weeks old, 18-20 g) were obtained from Charles River Laboratories and used for all in vivo studies. […] Bacterial optical density was measured at 600 nm. […] The pharmacokinetics and biodistribution of single dose pCQ was evaluated in a mouse model of IBD. […] The pharmacokinetic parameters of HCQ and pCQ in blood and tissues were calculated using non-compartmental analysis with Phoenix WinNonlin 6.3 (Pharsight Corporation). […]
assay.endpoint: MRT (h)

> print(dat)
                                   molecule  endpoint.result
1  CCN(CCO)CCCC(C)Nc1ccnc2cc(Cl)ccc12 (stereo not shown) [HCQ, Hydroxychloroquine]              6.8
